Please go through the items and note down their self-cleavage.
B1: HDV Ribozyme (parent)
chain: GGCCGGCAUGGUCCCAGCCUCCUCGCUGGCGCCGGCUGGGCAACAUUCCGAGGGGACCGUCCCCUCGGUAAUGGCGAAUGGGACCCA

Variants of: B1
Assay: self-cleavage, relative activity (ratio to wild type); higher = more cleavage; co-transcriptional
// return a plain number; no unit text

Recorded result, G38U U72C , self-cleavage: 0.0978

Field self-cleavage (entry G25A U46A ) reads 0

For record C3A U60C the listed self-cleavage is 0.499

The variant C24U G25U showed self-cleavage equal to 0.138

Reported self-cleavage of C4U C33G : 0

self-cleavage measured on G25C C63U = 0.0739

The reported self-cleavage of the variant C41G U47C was 0.633

Sample G1A G6C ; self-cleavage observed: 0.151

# self-cleavage (variant: A45G C86A ) is 0.639

// sample C3A A43G , its self-cleavage was 0.0821

Lookup result for A70C G76C ; measured self-cleavage: 0.796

Noted for C32G C62A : its self-cleavage reads 0.148

So, G1C C21G ? Its self-cleavage was 0

# variant G34U G59U ; its self-cleavage = 0.229

Short answer for C36A A78U : self-cleavage was 0

Entry G29U C33A , self-cleavage reported as 0.0519

Looking up G10U G81A , I see its self-cleavage listed as 0.026

In plain terms, G25U G35U has a documented self-cleavage of 0.147

For reference, reported self-cleavage for C63G G82A stands at 0.219

The recorded self-cleavage for entry C63G G67U equals 0.293

Per the record, C24U G38C has self-cleavage of 0.0554

Entry U20A U46C , self-cleavage reported as 0

Notebook: G29U C75A , self-cleavage read as 0.0639

Sample G39C G74C ; self-cleavage observed: 0.166

Query C48U U79C yields self-cleavage of 0.45

get_value(item= C41A A70U , readout=self-cleavage) returns 0.817

Per the record, C24A G38A has self-cleavage of 0.208

// C3A G10A : self-cleavage value = 0.335

What the record says about A43G A77C : self-cleavage is 0.0723

For reference, reported self-cleavage for G40C C66U stands at 0.249

// field: self-cleavage; key: G54U A56G ; value = 1.15

What the record says about C63G A77C : self-cleavage is 0.58

Entry C7A G74C , self-cleavage reported as 0.131

response.value for U46C U72C (field: self-cleavage) = 0.684

For reference, reported self-cleavage for G28U U37C stands at 0.141

# self-cleavage of C13U A42G = 0.0755

Lab note: measured self-cleavage of G29A G53U was 0.114

self-cleavage in this record for G40C A70C : 0.208

Form field self-cleavage, entry G68U G74U : 0.604

// G39U A56U : self-cleavage value = 0.819

What the record says about A51U C63A : self-cleavage is 0.911

The variant C61U G80C showed self-cleavage equal to 0.115

Record summary for G31A C58U : reported self-cleavage = 0.399

Short answer for G34C G35U : self-cleavage was 0.306

Given item C13A C63U , the value recorded as its self-cleavage is 0.0627

Input C49U G53C . Output self-cleavage: 1.05

The value of self-cleavage measured for the variant U27A A51U turned out to be 0.739

Per the records, this variant ( G40C U72A ) has self-cleavage equal to 0.124

Looking up G1C U23A , I see its self-cleavage listed as 0.128

Form field self-cleavage, entry G35C C63U : 0.492

self-cleavage measured on C24G U46C = 0.106

Consider U27G U65G . Its measured self-cleavage is 0.95

Per the record, G6A C48A has self-cleavage of 0.465

Summary for this variant, U9G U79G : self-cleavage is 0.923

get_value(item= C64A U72C , readout=self-cleavage) returns 0.465

// recorded self-cleavage for C4A G17A : 0.0396

Lab book: self-cleavage of C4U C7G noted as 0

Recorded result, A16C A56U , self-cleavage: 0.997

Sure, the documented self-cleavage for C13U U37G is 0.138

Kindly note the recorded self-cleavage for G34U A87C , which is 0.119

Record G34A A83U . Reported self-cleavage: 0.0831

# self-cleavage of C7U A87G = 0.91

Entry under test: G17A C57A . Its self-cleavage was 0.965

Noted for G40C G59U : its self-cleavage reads 0.326

self-cleavage for U20A G39U is 0.0852

G31C G59A has a reported self-cleavage of 0.483
